test system: DU-145 prostate; assay: NCI-60 one-dose screen, 48 h; conditions: 10 µM unless noted
About 83,000 compounds went through this panel and 20% of them were active in at least one assay; those are over-represented in the sample as a whole. Activity calls are given as the source filed them. The calls were made as follows: active = growth percent below 10; inactive = the rest.
Outcome field: choose from 1 = active, -1 = inactive

Reference set (10 entries):
COC(=O)[C@H](Cc1cnc[nH]1)NC(=O)[C@@H](NC(=O)Nc1cc(C(F)(F)F)cc(C(F)(F)F)c1)C(C)C | 1
O=CN1N=C(c2ccc(Cl)cc2)CC1c1cccc(Nc2ccnc3cc(Cl)ccc23)c1 (configuration not stated) | -1
CS(=O)(=O)N1CCN(Cc2cc3nc(-c4cccc5[nH]ncc45)nc(N4CCOCC4)c3s2)CC1 (tested in a mixture with another compound) | -1
CC(=O)N1N=C(c2ccc(C(F)(F)F)cc2)CC1c1ccc2c(c1)OCO2 (configuration not stated) | -1
O=[N+]([O-])c1cc([N+](=O)[O-])c(N2CCCC2)cc1NN=C(c1ccc(O)cc1)c1ccc(O)cc1 | -1
Nc1ccc(N=Nc2ccccc2)cc1[N+](=O)[O-] | -1
C=C1CCC2C(C)(COC(=O)CC)C(OC(=O)CC)CCC2(C)C1C/C=C1/C(=O)OCC1OC(=O)CC (configuration not stated) | -1
O=c1sc2ncnc3ncn1c32 | -1
Clc1ccc2[nH]cc(-c3cncn3CCc3ccccc3)c2c1 | -1
COc1ccc2nc(NC(=O)CN3CCn4c(nnc4C(F)(F)F)C3)sc2c1 | -1

Tell me the recorded outcome of this test for COc1cnc2c(c1)C(=O)c1c-2n(CCCn2ccnc2)c(=O)c2cc(F)ccc12 . 1

Tell me the recorded outcome of this test for NC(=N\N=C/Cc1ccccc1)/C(N)=N\N=C\Cc1ccccc1 . -1

Tell me the recorded outcome of this test for CC(C)Sc1nc(-c2ccc(Br)cc2)c(C#N)c(N2CCCCC2)n1 . -1

Tell me the recorded outcome of this test for COC(=O)CC1=C(c2ccc([N+](=O)[O-])cc2)CCC1=O . -1

Tell me the recorded outcome of this test for COC(=O)N/N=C/c1coc2ccc(Cl)cc2c1=O . -1

Tell me the recorded outcome of this test for CCOC(=O)C(C(=O)OCC)C1CCCCC1 . -1

Tell me the recorded outcome of this test for Cc1cc2c(cc1C)[n+](Cc1ccc3ccccc3c1)cn2Cc1ccc2ccccc2c1 . 1

* * *

Tested on: SF-539 CNS
Assay: NCI-60 one-dose screen, 48 h
Conditions: 10 µM unless noted
Protocol: Cells are grown in 96 well plates and exposed to the test compound for 48 hours. Compounds are tested at a single concentration, which is 10^-5 M for most compounds. The reported endpoint is percent growth (GI% or GIPRCNT), where numbers from 0 - 100% represent growth inhibition, and numbers from -100% - 0 represent cell death. For example, a value of 40 represents 60% growth inhibition. A value of 0 means no net growth occurred over the course of the experiment. […]
Compounds without any hit were thinned out: in the full panel of roughly 83,000, 20% have a hit. Active and inactive are the calls of the source. How the source made its calls: active means growth percent below 10; inactive means the rest.
Outcome field: choose from yes (active), no (inactive)

Reference set (5 entries):
O=C1NC(=O)/C(=C\c2ccco2)S1 | no
O=c1oc2c(cc1-c1ccc([N+](=O)[O-])cc1)C(O)Oc1ccccc1-2 (stereo not drawn) | no
c1ccc(COc2ccc(Nc3ncnc4c3cnn4-c3ccccc3)cc2)cc1 | no
Cc1cc(=O)oc2cc(OCCn3c(C)nn(-c4ccc(Cl)cc4)c3=O)ccc12 | no
FC(F)(F)c1cc(-c2nnc3n2N=C(N2CCCC2)CS3)cc(C(F)(F)F)c1 | no

Tell me the recorded outcome of this test for O=C1/C(=C/c2ccc(F)cc2)Cc2ccccc21 . no

Tell me the recorded outcome of this test for Cc1sc2nc3c4ccccc4c(NCCCN(C)C)nn3c(=O)c2c1C . no
